System: human Cav3.1 Cav3.2 or Cav3.3 channel
test_description: In vitro assay T channel (FLIPR calcium fluorescence)
Type: cell-based
test_context: HEK293 cells expressing human Cav3.1, Cav3.2 or Cav3.3; 10 mM Ca2+-induced fluo-4 fluorescence; determined up to 10 μM; read-out: T channel antagonistic activity IC50
endpoint_label: IC50 (nM)

Known IC50 results, listed for orientation:
compound	IC50, nM
CC(C)C(=O)O[C@@]1(CCN(C)CCCc2nc3ccccc3[nH]2)C[C@H]2CC[C@@H]1C=C2c1nccs1 (relative stereo) [Example 24A]	2750
COc1ccccc1C1=C[C@H]2CC[C@@H]1C[C@]2(CCN(C)CCCc1nc2ccccc2[nH]1)OC(=O)C(C)C (relative stereo) [Example 23A]	4010

A = Cc1ccc(C2=C[C@H]3CC[C@@H]2C[C@@]3(O)CCN(C)CCCc2nc3ccccc3[nH]2)cc1 (relative stereo)
B = CC(C)Oc1cccc2nc(CCCN(C)CC[C@]3(O)C[C@H]4CC[C@@H]3C=C4c3ccccc3)[nH]c12 (relative stereo)
C = CC(C)C(=O)O[C@@]1(CCN(C)CCCc2nc3cccc(O)c3[nH]2)C[C@H]2CC[C@@H]1C=C2c1ccccc1 (relative stereo) [Example 35A]
Ascending by IC50, please. Please express your ranking as an ordered list of the labels. C, B, A

----------
tested_on: human Cav1.2 channel (Homo sapiens, UniProt Q13936)
Sequence (Q13936 whole entry): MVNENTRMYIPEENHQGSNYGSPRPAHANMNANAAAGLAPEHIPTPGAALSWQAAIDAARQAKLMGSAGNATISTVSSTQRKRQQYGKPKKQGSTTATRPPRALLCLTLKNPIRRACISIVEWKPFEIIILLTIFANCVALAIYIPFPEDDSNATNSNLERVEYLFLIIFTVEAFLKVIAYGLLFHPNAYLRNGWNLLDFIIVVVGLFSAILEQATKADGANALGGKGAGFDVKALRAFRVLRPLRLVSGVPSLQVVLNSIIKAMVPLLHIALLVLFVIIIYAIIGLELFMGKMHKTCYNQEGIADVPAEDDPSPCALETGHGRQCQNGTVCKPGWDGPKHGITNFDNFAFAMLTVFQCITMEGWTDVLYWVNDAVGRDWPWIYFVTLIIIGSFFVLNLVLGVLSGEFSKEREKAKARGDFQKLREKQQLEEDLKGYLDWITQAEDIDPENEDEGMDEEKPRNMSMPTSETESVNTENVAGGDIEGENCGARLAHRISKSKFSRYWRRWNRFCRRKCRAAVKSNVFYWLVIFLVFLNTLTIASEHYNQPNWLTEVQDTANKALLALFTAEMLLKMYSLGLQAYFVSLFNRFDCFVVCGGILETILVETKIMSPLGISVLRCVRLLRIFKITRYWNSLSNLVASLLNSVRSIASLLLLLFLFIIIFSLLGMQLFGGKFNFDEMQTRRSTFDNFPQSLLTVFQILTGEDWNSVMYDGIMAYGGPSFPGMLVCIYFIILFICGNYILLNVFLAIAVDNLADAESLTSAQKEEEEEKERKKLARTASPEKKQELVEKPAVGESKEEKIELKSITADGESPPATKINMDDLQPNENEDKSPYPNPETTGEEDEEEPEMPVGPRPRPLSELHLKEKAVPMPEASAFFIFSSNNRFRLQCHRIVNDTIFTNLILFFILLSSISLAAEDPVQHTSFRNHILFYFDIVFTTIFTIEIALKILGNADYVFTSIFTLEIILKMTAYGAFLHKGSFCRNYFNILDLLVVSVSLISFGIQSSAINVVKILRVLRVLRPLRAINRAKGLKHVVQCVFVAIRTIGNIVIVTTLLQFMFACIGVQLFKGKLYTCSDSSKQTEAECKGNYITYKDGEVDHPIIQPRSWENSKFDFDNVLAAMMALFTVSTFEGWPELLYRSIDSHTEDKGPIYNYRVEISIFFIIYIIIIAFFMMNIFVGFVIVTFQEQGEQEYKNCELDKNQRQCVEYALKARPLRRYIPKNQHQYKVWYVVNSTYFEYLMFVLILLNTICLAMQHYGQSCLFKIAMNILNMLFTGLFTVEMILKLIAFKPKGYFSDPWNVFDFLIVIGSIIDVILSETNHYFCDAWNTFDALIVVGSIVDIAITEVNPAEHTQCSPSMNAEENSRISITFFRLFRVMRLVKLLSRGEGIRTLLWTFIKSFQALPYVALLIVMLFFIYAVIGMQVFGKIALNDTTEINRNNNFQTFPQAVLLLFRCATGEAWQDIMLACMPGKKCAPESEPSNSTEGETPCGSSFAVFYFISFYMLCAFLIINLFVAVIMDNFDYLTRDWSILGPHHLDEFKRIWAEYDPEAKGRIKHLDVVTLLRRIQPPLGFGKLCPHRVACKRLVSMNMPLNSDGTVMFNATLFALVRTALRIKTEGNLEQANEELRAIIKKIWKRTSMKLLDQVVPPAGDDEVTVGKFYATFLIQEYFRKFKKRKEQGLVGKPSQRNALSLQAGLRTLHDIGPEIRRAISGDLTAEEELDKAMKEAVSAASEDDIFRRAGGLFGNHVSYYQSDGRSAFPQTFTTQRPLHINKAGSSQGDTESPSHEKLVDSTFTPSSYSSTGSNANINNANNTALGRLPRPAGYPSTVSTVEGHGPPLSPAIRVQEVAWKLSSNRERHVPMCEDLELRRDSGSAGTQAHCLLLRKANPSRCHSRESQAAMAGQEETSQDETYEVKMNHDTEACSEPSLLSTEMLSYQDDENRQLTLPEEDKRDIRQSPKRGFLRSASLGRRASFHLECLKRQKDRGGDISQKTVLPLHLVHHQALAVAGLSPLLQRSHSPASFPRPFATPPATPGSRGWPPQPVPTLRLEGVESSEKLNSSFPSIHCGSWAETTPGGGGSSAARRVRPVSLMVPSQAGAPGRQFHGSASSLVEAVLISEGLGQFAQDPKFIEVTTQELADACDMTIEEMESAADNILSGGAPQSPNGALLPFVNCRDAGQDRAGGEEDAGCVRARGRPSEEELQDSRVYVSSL
test_description: In vitro assay L channel (FLIPR calcium fluorescence)
test_context: HEK293 cells expressing human Cav1.2 with β-2a and α2δ-1; 20 mM KCl-induced fluo-4 fluorescence; determined up to 10 μM; read-out: L channel antagonistic activity (IC50)
endpoint_label: IC50

molecule	IC50
CN(CCCc1nc2ccccc2[nH]1)CC[C@]1(O)C[C@@H]2C=C[C@H]1CC2 (racemic) [Example 75]	> 10 µM
CN(CCCc1nc2ccccc2[nH]1)CC[C@]1(O)C[C@H]2CC[C@@H]1C=C2c1ncco1 (racemic) [Example 25]	> 10 µM

Suppose we examine the molecule CC(C)C(=O)O[C@@]1(CCN(C)CCCc2nc3ccccc3[nH]2)C[C@H]2CC[C@@H]1C=C2c1ccc2ccccc2c1 (racemic) [Example 10A] ; what IC50 value has been reported? > 10 µM

----------
Test system: human Cav3.1 Cav3.2 or Cav3.3 channel
test_description: In vitro assay T channel (FLIPR calcium fluorescence)
Assay type: cell-based
test_context: HEK293 cells expressing human Cav3.1, Cav3.2 or Cav3.3; 10 mM Ca2+-induced fluo-4 fluorescence; determined up to 10 μM; read-out: T channel antagonistic activity IC50
endpoint_label: IC50 (µM)

Solved entries:
compound	IC50 / µM
CC(C)C(=O)OC1(CCN(C)CCCc2nc3ccccc3[nH]2)CC2CCC1C1=C2CCc2ccccc21 (racemic) [Example 18A]	2.05
COCC(C)(COC)C(=O)N(C)CCCN(C)CC[C@]1(OC(=O)C(C)C)C[C@H]2CC[C@@H]1C(c1ccccc1)=C2C (relative stereo) [Example 53A]	0.688
COc1cccc2[nH]c(CCCN(C)CC[C@]3(OC(=O)C(C)C)C[C@H]4CCC[C@@H]3C=C4c3ccccc3)nc12 (relative stereo) [Example 36A]	1.01

P = CC(C)C(=O)O[C@@]1(CCN(C)CCCNC(=O)C(C)(C)C)C[C@H]2CC[C@@H]1C=C2c1ccccc1 (relative stereo) [Example 45A]
Q = COc1cccc2c1nc(CCCN(C)CC[C@]1(OC(=O)C(C)C)C[C@H]3CC[C@@H]1C=C3c1ccccc1)n2C (relative stereo) [Example 37A]
Higher IC50 between P and Q ? Response format: the label of the selected entry. P
(P: 1.7 µM, Q: 0.935 µM)
